- Test Details: Hydrolysis stability test in homogeneous aqueous solution
- Format: physicochemical
- Measurement Conditions: buffer pH 9/acetonitrile, 50° C., 24 hours, first order degradation assumed, read-out: T1/2 (pH 9) (converted)
Recorded Endpoint: half-life at 59 µg/mL
Remember to quote the unit after the number.

Field half-life at 59 µg/mL (entry CCN(C)/C=N/c1cc(C)c(Oc2ccccc2)cc1Cl ) reads 40 h

###

Entries and their measured chromatographic logP follow.
- Test Details: Log P by HPLC on reversed phase columns (EEC directive 79/831 Annex V.A8)
- Assay type: physicochemical
- Measurement Conditions: reversed phase HPLC column, LC-UV, acidic range, 0.1% formic acid in water and acetonitrile as eluent; read-out: LogP [a]
Answer with a number only.

CCN(C)/C=N/c1cc(C)c(Oc2ccccc2)cc1Cl [Example I-01]; 1.6
Cc1cc(N)c(Br)cc1Oc1ccccc1 [VIII-02, 2-bromo-5-methyl-4-phenoxyaniline]; 3.66

Field chromatographic logP (entry CCN(C)/C=N/c1cc(C)c(Oc2ccccc2)cc1Br [Example I-02] ) reads 1.61

Field chromatographic logP (entry CCN(C)C=Nc1cc(C)c(Oc2ccccc2)cc1F [Example I-03] ) reads 1.55

Field chromatographic logP (entry Cc1cc([N+](=O)[O-])c(Br)cc1Oc1ccccc1 [VI-02] ) reads 4.51

###

- Test Details: Log P by HPLC on reversed phase columns (EEC directive 79/831 Annex V.A8)
- Assay type: physicochemical
- Measurement Conditions: reversed phase HPLC column, LC-UV, neutral range, 0.001 molar ammonium acetate solution in water and acetonitrile as eluent; read-out: LogP [b]
Entries and their measured chromatographic logP follow.

For orientation, consider the following solved cases.
CCN(C)/C=N/c1cc(C)c(Oc2ccccc2)cc1Br [Example I-02]; 4.67
Cc1cc(N)c(Br)cc1Oc1ccccc1 [VIII-02, 2-bromo-5-methyl-4-phenoxyaniline]; 3.65

Field chromatographic logP (entry CCN(C)C=Nc1cc(C)c(Oc2ccccc2)cc1F [Example I-03] ) reads 3.97

# credit: patent US10912297B2
